Tested on: MYC
Assay: 3' UTR reporter interaction score (median-centred robust z-score of log2 firefly/Renilla activity); higher = less repression of the 3' UTR reporter
Settings: HEK293T; 48 h

>  <QUERY_SEQUENCE>
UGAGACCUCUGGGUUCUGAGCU

>  <3' UTR reporter interaction score>
0.551

$$$$
>  <QUERY_SEQUENCE>
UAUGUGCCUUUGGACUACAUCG

>  <3' UTR reporter interaction score>
0.403

$$$$
>  <QUERY_SEQUENCE>
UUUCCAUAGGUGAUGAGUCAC

>  <3' UTR reporter interaction score>
0.823

$$$$
>  <QUERY_SEQUENCE>
UGCUUCCUUUCAGAGGGU

>  <3' UTR reporter interaction score>
0.327

$$$$
>  <QUERY_SEQUENCE>
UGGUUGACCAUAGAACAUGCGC

>  <3' UTR reporter interaction score>
-0.769

$$$$
>  <QUERY_SEQUENCE>
CUCUAGAGGGAAGCACUUUCU

>  <3' UTR reporter interaction score>
0.565

$$$$
>  <QUERY_SEQUENCE>
UAGCACCAUUUGAAAUCGGU

>  <3' UTR reporter interaction score>
0.499

$$$$
>  <QUERY_SEQUENCE>
AAAGCGCUUCCCUUCAGAGUGU

>  <3' UTR reporter interaction score>
-0.758

$$$$
>  <QUERY_SEQUENCE>
AAGUGCUUCCUUUUAGAGGGUU

>  <3' UTR reporter interaction score>
-0.869

$$$$
>  <QUERY_SEQUENCE>
AAAGUGCUUCCUUUUAGAGGC

>  <3' UTR reporter interaction score>
-0.277

$$$$
>  <QUERY_SEQUENCE>
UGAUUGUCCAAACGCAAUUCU

>  <3' UTR reporter interaction score>
-2.91

$$$$
>  <QUERY_SEQUENCE>
UAUUGCUUAAGAAUACGCGUAG

>  <3' UTR reporter interaction score>
-0.116

$$$$
>  <QUERY_SEQUENCE>
UGGUAGACUAUGGAACGUA

>  <3' UTR reporter interaction score>
-0.304

$$$$
>  <QUERY_SEQUENCE>
AUGCACCUGGGCAAGGAUUCUG

>  <3' UTR reporter interaction score>
1.46

$$$$
>  <QUERY_SEQUENCE>
CUGCAAAGGGAAGCCCUUUCU

>  <3' UTR reporter interaction score>
1.15

$$$$
>  <QUERY_SEQUENCE>
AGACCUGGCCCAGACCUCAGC

>  <3' UTR reporter interaction score>
0.0891

$$$$
>  <QUERY_SEQUENCE>
AGGGGUGGUGUUGGGACAGCUCCGU

>  <3' UTR reporter interaction score>
-0.499

$$$$
>  <QUERY_SEQUENCE>
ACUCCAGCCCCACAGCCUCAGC

>  <3' UTR reporter interaction score>
-0.755

$$$$
>  <QUERY_SEQUENCE>
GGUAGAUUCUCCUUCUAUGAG

>  <3' UTR reporter interaction score>
0.11

$$$$
>  <QUERY_SEQUENCE>
GGCAGGUUCUCACCCUCUCUAGG

>  <3' UTR reporter interaction score>
0.583

$$$$
>  <QUERY_SEQUENCE>
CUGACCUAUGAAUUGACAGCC

>  <3' UTR reporter interaction score>
1.2

$$$$
>  <QUERY_SEQUENCE>
AGGGCCCCCCCUCAAUCCUGU

>  <3' UTR reporter interaction score>
-0.761

$$$$
>  <QUERY_SEQUENCE>
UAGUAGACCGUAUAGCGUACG

>  <3' UTR reporter interaction score>
-0.638

$$$$
>  <QUERY_SEQUENCE>
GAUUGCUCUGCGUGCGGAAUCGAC

>  <3' UTR reporter interaction score>
-2.18

$$$$
>  <QUERY_SEQUENCE>
UAAAGUGCUUAUAGUGCAGGUAG

>  <3' UTR reporter interaction score>
-0.207

$$$$
>  <QUERY_SEQUENCE>
AAUCAUACACGGUUGACCUAUU

>  <3' UTR reporter interaction score>
-0.182

$$$$
>  <QUERY_SEQUENCE>
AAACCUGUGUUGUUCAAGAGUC

>  <3' UTR reporter interaction score>
-0.2

$$$$
>  <QUERY_SEQUENCE>
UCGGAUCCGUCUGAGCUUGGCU

>  <3' UTR reporter interaction score>
-0.287

$$$$
>  <QUERY_SEQUENCE>
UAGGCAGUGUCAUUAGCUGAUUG

>  <3' UTR reporter interaction score>
-5.22

$$$$
>  <QUERY_SEQUENCE>
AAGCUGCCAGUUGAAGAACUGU

>  <3' UTR reporter interaction score>
-0.252

$$$$
>  <QUERY_SEQUENCE>
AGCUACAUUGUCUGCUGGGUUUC

>  <3' UTR reporter interaction score>
0.427

$$$$
>  <QUERY_SEQUENCE>
UAUGCAUUGUAUUUUUAGGUCC

>  <3' UTR reporter interaction score>
0.248

$$$$
>  <QUERY_SEQUENCE>
UUACAGUUGUUCAACCAGUUACU

>  <3' UTR reporter interaction score>
0.385

$$$$
>  <QUERY_SEQUENCE>
UAUACAAGGGCAAGCUCUCUGU

>  <3' UTR reporter interaction score>
0.32

$$$$
>  <QUERY_SEQUENCE>
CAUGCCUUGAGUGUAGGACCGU

>  <3' UTR reporter interaction score>
-1.17

$$$$
>  <QUERY_SEQUENCE>
UUCACAGGGAGGUGUCAUUUAU

>  <3' UTR reporter interaction score>
0.377

$$$$
>  <QUERY_SEQUENCE>
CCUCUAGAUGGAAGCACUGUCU

>  <3' UTR reporter interaction score>
-0.352

$$$$
>  <QUERY_SEQUENCE>
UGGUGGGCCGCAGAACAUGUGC

>  <3' UTR reporter interaction score>
0.0166

$$$$
>  <QUERY_SEQUENCE>
GCCUGCUGGGGUGGAACCUGG

>  <3' UTR reporter interaction score>
0.0868

$$$$
>  <QUERY_SEQUENCE>
AUCAUGAUGGGCUCCUCGGUGU

>  <3' UTR reporter interaction score>
-1.04

$$$$
>  <QUERY_SEQUENCE>
UGUGCUUGCUCGUCCCGCCCGCAG

>  <3' UTR reporter interaction score>
0.429

$$$$
>  <QUERY_SEQUENCE>
UGGAAGACUAGUGAUUUUGUUG

>  <3' UTR reporter interaction score>
-0.317

$$$$
>  <QUERY_SEQUENCE>
UCCCUGAGACCCUUUAACCUGUG

>  <3' UTR reporter interaction score>
0.131

$$$$
>  <QUERY_SEQUENCE>
CUAAUAGUAUCUACCACAAUAAA

>  <3' UTR reporter interaction score>
-0.306

$$$$
>  <QUERY_SEQUENCE>
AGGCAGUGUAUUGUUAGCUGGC

>  <3' UTR reporter interaction score>
-2.42

$$$$
>  <QUERY_SEQUENCE>
CUGGAUGGCUCCUCCAUGUCU

>  <3' UTR reporter interaction score>
-0.501

$$$$
>  <QUERY_SEQUENCE>
AGGGGGAAAGUUCUAUAGUCCU

>  <3' UTR reporter interaction score>
-1.56

$$$$
>  <QUERY_SEQUENCE>
AGAGGUAUAGGGCAUGGGAAAA

>  <3' UTR reporter interaction score>
0.244

$$$$
>  <QUERY_SEQUENCE>
AAAGUGCUGUUCGUGCAGGUAG

>  <3' UTR reporter interaction score>
-0.0736

$$$$
>  <QUERY_SEQUENCE>
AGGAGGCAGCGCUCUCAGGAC

>  <3' UTR reporter interaction score>
-1.13

$$$$
>  <QUERY_SEQUENCE>
GCCCCUGGGCCUAUCCUAGAA

>  <3' UTR reporter interaction score>
-0.282

$$$$
>  <QUERY_SEQUENCE>
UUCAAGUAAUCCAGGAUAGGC

>  <3' UTR reporter interaction score>
-1.71

$$$$
>  <QUERY_SEQUENCE>
CUCUUGAGGGAAGCACUUUCUGUU

>  <3' UTR reporter interaction score>
-0.277

$$$$
>  <QUERY_SEQUENCE>
CUUUCAGUCGGAUGUUUACAGC

>  <3' UTR reporter interaction score>
-0.326

$$$$
>  <QUERY_SEQUENCE>
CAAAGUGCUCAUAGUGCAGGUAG

>  <3' UTR reporter interaction score>
-0.364

$$$$
>  <QUERY_SEQUENCE>
AGGUUGACAUACGUUUCCC

>  <3' UTR reporter interaction score>
-0.726

$$$$
>  <QUERY_SEQUENCE>
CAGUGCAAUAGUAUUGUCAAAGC

>  <3' UTR reporter interaction score>
-0.162

$$$$

These entries and their values trace back to the supplement of paper PMC5844555.
